experiment: Drug level in Swiss SPF (CD1) mouse liver at 20 mg/kg, po after 1 hr; format: ADME, organism-based; parameters: dose 20 mg/kg, route oral; details: read-out: Drug uptake
Observable: concentration at 1 h
Answer shape: numeric part, then the unit.

**Q:** Tell me concentration at 1 h reported for O=C(NCCCN1CCCC1=O)c1cnccc1Nc1nc(-c2cc(Br)ccc2F)nc2nccnc12
**A:** 2940 ng/mL

* * *

experiment: Cytotoxicity against MT4 cells by luciferase assay; type: cell-based; conditions: human
Observable: CC50 (µM)
Record the value in µM, omitting the unit from your answer.

**Q:** Please give measured CC50 of the following entry: COc1cnc(-c2cc(Cl)ccc2F)nc1Nc1ccncc1C(=O)NCCCN(C)C
**A:** 5

**Q:** Using known records, supply CC50 for COc1cnc(-c2cc(Cl)ccc2F)nc1Nc1ccncc1C(=O)NCCCN1CCOCC1
**A:** 15.4

**Q:** Determine its reported CC50: COc1cnc(-c2cc(Cl)ccc2F)nc1Nc1ccncc1C(=O)NCCCN1CCCCC1C (centres undefined)
**A:** 3.3

**Q:** Quote CC50 reported for Cc1cc(Nc2nc(-c3cc(Br)ccc3F)nc3nccnc23)ccn1 please.
**A:** 13.2
